experiment: Total clearance in rat at 1 mg/kg,iv by LC/MS/MS analysis; type: ADME, organism-based; conditions: in vivo
Observation type: clearance (mL/min/kg)
Give bare numbers, in mL/min/kg.

# lookup: clearance of `C[S@@+]([O-])[C@@H]1CC[C@@H]2CN1C(=O)N2O[C@H](F)C(=O)[O-].[Na+]`
27

----------
assay: AUC in mouse at 100 mg/kg,po by LC/MS/MS analysis; type: ADME, organism-based; design: dose 100 mg/kg, route po; settings: in vivo
Observation type: AUC (ng·h/mL)
Give bare numbers, in ng·h/mL.

# lookup: AUC of `C[S@@+]([O-])[C@@H]1CC[C@@H]2CN1C(=O)N2O[C@H](F)C(=O)OC1CCCCC1`
50200

----------
assay: AUC in monkey at 10 mg/kg,po by LC/MS/MS analysis; format: ADME, organism-based, Macaca mulatta; design: dose 10 mg/kg, route po; details: rhesus monkey, in vivo
Observation type: AUC
Answer by giving the amount and then stating its unit.

Some entries whose results are on file:
CCOC(=O)[C@@H](F)ON1C(=O)N2C[C@H]1CC[C@H]2[S@@+](C)[O-] = 8320 ng·h/mL
CC(C)OC(=O)[C@@H](F)ON1C(=O)N2C[C@H]1CC[C@H]2[S@@+](C)[O-] = 7060 ng·h/mL

--- query ---
# lookup: AUC of `C[S@@+]([O-])[C@@H]1CC[C@@H]2CN1C(=O)N2O[C@H](F)C(=O)OC1CCCCC1`
15200 ng·h/mL

----------
assay: Cmax in monkey at 10 mg/kg,po by LC/MS/MS analysis; format: ADME, organism-based, Macaca mulatta; design: dose 10 mg/kg, route po; conditions: rhesus monkey, in vivo
Observation type: Cmax

CC(C)OC(=O)[C@@H](F)ON1C(=O)N2C[C@H]1CC[C@H]2[S@@+](C)[O-] = 4380 ng/mL
CCOC(=O)[C@@H](F)ON1C(=O)N2C[C@H]1CC[C@H]2[S@@+](C)[O-] = 4510 ng/mL

# lookup: Cmax of `C[S@@+]([O-])[C@@H]1CC[C@@H]2CN1C(=O)N2O[C@H](F)C(=O)OC1CCCCC1`
7940 ng/mL

----------
experiment: Inhibition of bacterial beta-lactamase CTX-M-15 using nitrocefin as substrate incubated for 20 mins; parameters: species or system Bacteria
Observation type: IC50
Answer by giving the amount and then stating its unit.

Cc1nnc(C[S@@+]([O-])[C@@H]2CC[C@@H]3CN2C(=O)N3O[C@H](F)C(=O)[O-])o1.[Na+] = 24 nM
NS(=O)(=O)[C@@H]1CC[C@@H]2CN1C(=O)N2OC(F)(F)C(=O)O.[Na+] = 104 nM

--- query ---
# lookup: IC50 of `O=C([O-])[C@@H](F)ON1C(=O)N2C[C@H]1CC[C@H]2[S@+]([O-])CCCO.[Na+]`
10 nM

----------
experiment: Half life in rat at 1 mg/kg,iv by LC/MS/MS analysis; type: ADME, organism-based; details: in vivo
Observation type: half-life (min)
One number for each entry, in min.

# lookup: half-life of `C[S@@+]([O-])[C@@H]1CC[C@@H]2CN1C(=O)N2O[C@H](F)C(=O)[O-].[Na+]`
12

----------
Please provide measured Tmax for the entries that follow.
experiment: Tmax in dog at 10 mg/kg,po by LC/MS/MS analysis; assay type: ADME, organism-based, Canis lupus familiaris; details: in vivo
One number for each entry, in h.

C[S@@+]([O-])[C@@H]1CC[C@@H]2CN1C(=O)N2O[C@H](F)C(=O)OC1CCCCC1 = 1
CCOC(=O)[C@@H](F)ON1C(=O)N2C[C@H]1CC[C@H]2[S@@+](C)[O-] = 1

--- query ---
# lookup: Tmax of `CC(C)OC(=O)[C@@H](F)ON1C(=O)N2C[C@H]1CC[C@H]2[S@@+](C)[O-]`
0.8

----------
test: Half life in monkey at 5 mg/kg,iv by LC/MS/MS analysis; assay type: ADME, organism-based, Macaca mulatta; settings: rhesus monkey, in vivo
Observation type: half-life (min)
Give bare numbers, in min.

# lookup: half-life of `C[S@@+]([O-])[C@@H]1CC[C@@H]2CN1C(=O)N2O[C@H](F)C(=O)[O-].[Na+]`
30

----------
Please provide measured AUC for the entries that follow.
assay: AUC in dog at 10 mg/kg,po by LC/MS/MS analysis; format: ADME, organism-based, Canis lupus familiaris; parameters: dose 10 mg/kg, route po; settings: in vivo
Numbers only, in ng·h/mL.

Some entries whose results are on file:
CCOC(=O)[C@@H](F)ON1C(=O)N2C[C@H]1CC[C@H]2[S@@+](C)[O-] = 26000
CC(C)OC(=O)[C@@H](F)ON1C(=O)N2C[C@H]1CC[C@H]2[S@@+](C)[O-] = 18400

# lookup: AUC of `C[S@@+]([O-])[C@@H]1CC[C@@H]2CN1C(=O)N2O[C@H](F)C(=O)OC1CCCCC1`
41200

----------
experiment: Total clearance in rat by LC-MS/MS analysis; format: ADME; conditions: in vivo
Please provide measured clearance for the entries that follow.
Numbers only, in mL/min/kg.

Some entries whose results are on file:
NS(=O)(=O)[C@@H]1CC[C@@H]2CN1C(=O)N2OC(F)(F)C(=O)O.[Na+] = 84.5
C[S@@+]([O-])[C@@H]1CC[C@@H]2CN1C(=O)N2O[C@H](F)C(=O)[O-].[Na+] = 27
C[S@@+]([O-])[C@@H]1CC[C@@H]2CN1C(=O)N2OC(F)(F)C(=O)[O-].[Na+] = 289

--- query ---
# lookup: clearance of `NS(=O)(=O)[C@@H]1CC[C@@H]2CN1C(=O)N2O[C@H](F)C(=O)[O-].[Na+]`
19.8

----------
test: Cmax in rat at 5 mg/kg,po by LC/MS/MS analysis; format: ADME, organism-based; parameters: dose 5 mg/kg, route po; settings: in vivo
Observation type: Cmax (ng/mL)
One number for each entry, in ng/mL.

Some entries whose results are on file:
CCOC(=O)[C@@H](F)ON1C(=O)N2C[C@H]1CC[C@H]2[S@@+](C)[O-] = 2150
C[S@@+]([O-])[C@@H]1CC[C@@H]2CN1C(=O)N2O[C@H](F)C(=O)OC1CCCCC1 = 620

# lookup: Cmax of `CC(C)OC(=O)[C@@H](F)ON1C(=O)N2C[C@H]1CC[C@H]2[S@@+](C)[O-]`
1700

----------
Please provide measured pIC50 for the entries that follow.
assay: Inhibition of bacterial beta-lactamase OXA-48 using nitrocefin as substrate incubated for 20 mins; parameters: species or system Bacteria
Give bare numbers, as −log10 of the molar value.

Some entries whose results are on file:
Nc1ncc(C[S@@+]([O-])[C@@H]2CC[C@@H]3CN2C(=O)N3O[C@H](F)C(=O)[O-])s1.[Na+] = 6.01
NC(=O)[C@@H]1CC[C@@H]2CN1C(=O)N2OS(=O)(=O)O = 5.24
C[S@+]([O-])[C@@H]1CC[C@@H]2CN1C(=O)N2O[C@H](F)C(=O)[O-].[Na+] = 4.49

# lookup: pIC50 of `C[S@@+]([O-])[C@@H]1CC[C@@H]2CN1C(=O)N2O[C@H](F)C(=O)[O-].[Na+]`
6.35

----------
Please provide measured bioavailability for the entries that follow.
assay: Oral bioavailability in dog at 10 mg/kg by LC/MS/MS analysis; type: ADME, organism-based, Canis lupus familiaris; conditions: in vivo
One number for each entry, in %.

CC(C)OC(=O)[C@@H](F)ON1C(=O)N2C[C@H]1CC[C@H]2[S@@+](C)[O-] = 48.1
C[S@@+]([O-])[C@@H]1CC[C@@H]2CN1C(=O)N2O[C@H](F)C(=O)OC1CCCCC1 = 106

--- query ---
# lookup: bioavailability of `CCOC(=O)[C@@H](F)ON1C(=O)N2C[C@H]1CC[C@H]2[S@@+](C)[O-]`
68.3

----------
experiment: AUC in mouse at 10 mg/kg,iv by LC/MS/MS analysis; format: ADME, organism-based; parameters: dose 10 mg/kg, route iv; conditions: in vivo
Observation type: AUC (ng·h/mL)
One number for each entry, in ng·h/mL.

# lookup: AUC of `C[S@@+]([O-])[C@@H]1CC[C@@H]2CN1C(=O)N2O[C@H](F)C(=O)[O-].[Na+]`
4920

----------
experiment: AUC in rat at 1 mg/kg,iv by LC/MS/MS analysis; assay type: ADME, organism-based; set-up: dose 1 mg/kg, route iv; details: in vivo
Observation type: AUC (ng·h/mL)
Give bare numbers, in ng·h/mL.

# lookup: AUC of `C[S@@+]([O-])[C@@H]1CC[C@@H]2CN1C(=O)N2O[C@H](F)C(=O)[O-].[Na+]`
620
